System: Mye-BP RUNX1 p.R107C
Assay: drug sensitivity score (DSS) (DSS score); higher = more sensitive (stronger growth inhibition); extreme values may be limits of the assay
metric: drug sensitivity score
// no unit string in output, number only

Which drug sensitivity score is listed for O=C(/C=C/c1cccc(S(=O)(=O)Nc2ccccc2)c1)NO [Belinostat] ?
23.5

Entry to check: Nc1cccc2c1CN(C1CCC(=O)NC1=O)C2=O (stereo unspecified) [Lenalidomide]
4.8

Queued: C=CC[C@@H]1/C=C(\C)C[C@H](C)C[C@H](OC)[C@H]2O[C@@](O)(C(=O)C(=O)N3CCCC[C@H]3C(=O)O[C@H](/C(C)=C/[C@@H]3CC[C@@H](O)[C@H](OC)C3)[C@H](C)[C@@H](O)CC1=O)[C@H](C)C[C@@H]2OC [Tacrolimus]
0

What do you have for CCCCC(=O)OCC(=O)[C@]1(O)Cc2c(O)c3c(c(O)c2[C@@H](O[C@H]2C[C@H](NC(=O)C(F)(F)F)[C@H](O)[C@H](C)O2)C1)C(=O)c1c(OC)cccc1C3=O [Valrubicin] ?
16.4

Try this molecule too: O=c1[nH]cc(F)c(=O)[nH]1 [Fluorouracil]
0.9

Okay, and CC(C)(C)c1cc(NC(=O)Nc2ccc(-c3cn4c(n3)sc3cc(OCCN5CCOCC5)ccc34)cc2)no1 [Quizartinib] ?
4.6

Then CNCc1ccc(-c2[nH]c3cc(F)cc4c3c2CCNC4=O)cc1 [Rucaparib] ?
3.1

Same read-out for CN(N=O)C(=O)N[C@@H](C=O)[C@@H](O)[C@H](O)[C@H](O)CO [Streptozocin] ?
0

One more molecule: COC1=CC(c2cc3ccccc3[nH]2)=N/C1=C\c1[nH]c(C)cc1C [Obatoclax]
2.7

Follow-up entry: CN1CCN(CCOc2cc(OC3CCOCC3)c3c(Nc4c(Cl)ccc5c4OCO5)ncnc3c2)CC1 [Saracatinib]
8.8

Thanks! And COc1cccc2c1C(=O)c1c(O)c3c(c(O)c1C2=O)C[C@@](O)(C(=O)CO)C[C@@H]3O[C@H]1C[C@H](N)[C@H](O)[C@H](C)O1 [Doxorubicin] ?
10.8

Next entry: COc1cc(Nc2ncc3c(n2)-c2ccc(Cl)cc2C(c2c(F)cccc2OC)=NC3)ccc1C(=O)O [Alisertib]
8.6

Repeat for the following molecule: Cn1nnc2c(C(N)=O)ncn2c1=O [Temozolomide]
0

And what about the molecule CC(C)(C)c1cnc(CSc2cnc(NC(=O)C3CCNCC3)s2)o1 [SNS-032] ?
30.5

Thanks! And COc1nc(N)nc2c1ncn2[C@@H]1O[C@H](CO)[C@@H](O)[C@@H]1O [Nelarabine] ?
8.3

How about CN[C@@H]1C[C@H]2O[C@@](C)([C@@H]1OC)n1c3ccccc3c3c4c(c5c6ccccc6n2c5c31)C(=O)N[C@H]4O [UCN-01] ?
17.3

Source of measurements: the supplement of paper PMC8024199
